- testName: Pharmacokinetic profiles
- Format: in vivo
- condition: Sprague-Dawley, rat, serum, iv, 1 mg/kg, SD rats, IV 1 mg/kg, 1 h; read-out: Con. (individual rats NO.1-3)
reportedEndpoint: concentration at 1 h (ng/mL)
Give just the numeric value; ng/mL need not be written.

# return recorded concentration at 1 h for entry CCN1CCN(C(=O)c2ccc(Nc3ncc(F)c(-c4ccc5nc(N(C)C)sc5c4)n3)nc2)CC1 265

---

- targetOrTestSystem: DYRK2 (Homo sapiens, UniProt Q92630)
- Construct: purchased Reaction Biology Corporation (assay service)
- Sequence (Q92630 1-601): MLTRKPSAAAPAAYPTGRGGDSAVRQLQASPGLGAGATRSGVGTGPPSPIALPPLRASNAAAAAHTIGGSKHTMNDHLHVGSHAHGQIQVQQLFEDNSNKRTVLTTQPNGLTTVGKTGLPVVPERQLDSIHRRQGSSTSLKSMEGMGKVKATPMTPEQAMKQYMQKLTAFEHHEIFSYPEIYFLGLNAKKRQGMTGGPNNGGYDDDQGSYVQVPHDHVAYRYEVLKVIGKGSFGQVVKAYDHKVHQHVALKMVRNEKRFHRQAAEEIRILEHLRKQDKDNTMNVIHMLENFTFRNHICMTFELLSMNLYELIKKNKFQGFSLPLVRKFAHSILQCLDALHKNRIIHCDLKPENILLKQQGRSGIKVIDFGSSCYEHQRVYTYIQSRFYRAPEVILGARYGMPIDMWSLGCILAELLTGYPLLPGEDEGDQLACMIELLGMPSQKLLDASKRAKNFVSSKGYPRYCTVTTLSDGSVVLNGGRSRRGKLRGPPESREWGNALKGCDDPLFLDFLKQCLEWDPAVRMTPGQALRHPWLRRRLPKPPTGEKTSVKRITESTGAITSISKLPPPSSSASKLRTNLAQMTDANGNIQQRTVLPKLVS
- testName: DYRKs kinase activity assay (33P-ATP, DYRKtide substrate): DYRK2
- Format: biochemical
- condition: DYRK2 kinase; Conc. 10 µM; duplicate values
As shown below, each of these compounds has a reported % Inhibition value.
Give just the numeric value; % need not be written.

Example results:
Cc1nc2ccc(-c3nc(Nc4ccc(C(=O)N5CCNCC5)cn4)ncc3F)cc2s1.Cl	98.21
CCN1CCN(Cc2ccc(Nc3ncc(F)c(-c4ccc5ncsc5c4)n3)nc2)CC1	77.29
CCN1CCN(C(=O)c2ccc(Nc3nc(-c4ccc5nc(N(C)C)sc5c4)c4sccc4n3)nc2)CC1	7.55
CCN1CCN(Cc2ccc(Nc3ncc(F)c(-c4cnc5ccnn5c4)n3)nc2)CC1	26.16
Cl.Fc1cnc(Nc2ccc(CN3CCNCC3)cn2)nc1-c1ccc2ncsc2c1	94.11

# return recorded % Inhibition for entry CC(C)N1CCN(Cc2ccc(Nc3ncc(F)c(-c4ccc5ncsc5c4)n3)nc2)CC1 86.13

# return recorded % Inhibition for entry CC(C)(C)OC(=O)N1CCN(Cc2ccc(Nc3ncc(F)c(-c4ccc5ncsc5c4)n3)nc2)CC1 60.62

# return recorded % Inhibition for entry Cl.Fc1cnc(Nc2ccc(N3CCNCC3)cn2)nc1-c1ccc2ncsc2c1 95.74

# return recorded % Inhibition for entry CCN1CCN(C(=O)c2cnc(Nc3ncc(F)c(-c4ccc5ncsc5c4)n3)nc2)CC1 87.41

Value source: paper PMC9133015
